biological target: African Green monkey MASP-2 (in African Green monkey serum) (African Green monkey); experiment: cell-based or functional assay
property: Functional IC50, C3b deposition, non-human primate serum Exp #1 (nM)

1) scFv mother clone 18L16 (scFv) scFv: QVTLKESGPVLVKPTETLTLTCTVSGFSLSNARMGVSWIRQPPGKALEWLAHIFSNDEKSYSTSLKSRLTISKDTSKSQVVLTMTNMDPVDTATYYCARMAILTAGGMDVWGQGTTVTVSSKLSGSASAPKLEEGEFSEARVSYVLTQPPSVSASPGQTASITCSGDKLGDKYVSWYQQKPGRSPVLVIYRDTKRPSGIPERFSGSNYGNTATLTISGTQAVDEADYYCQAWDSGSGVFGGGTKVTVLAAAGSEQKLISEEDLNSHHHHHH | 65.6
2) scFv mother clone 3F22 (scFv) scFv: QVQLQQSGPGLVKPSQTLSLTCAISGDSVSSNSAAWNWIRQSPSRGLEWLGRTYYRSKWYNDYAVSVKSRITINPDTSKNQFSLQLNSVTPEDTAVYYCARDPFGVPFDIWGQGTMVTVSSKLSGSASAPKLEEGEFSEARVSYVLTQPPSVSVAPGQTARVTCGGNNIRSKNVHWYQQKPGQAPVLVVYDDTDRPSGIPERFSGSNSGNTATLTVSRVEAGDEADYYCQVWDTTTDHVVFGGGTKLTVLAAAGSEQKLISEEDLNSHHHHHH | 114

Just for reference, patent US20170088632A1 is where these values come from.
